TARGET_OF_ASSAY: VEGF
Sequence (P15692 whole entry): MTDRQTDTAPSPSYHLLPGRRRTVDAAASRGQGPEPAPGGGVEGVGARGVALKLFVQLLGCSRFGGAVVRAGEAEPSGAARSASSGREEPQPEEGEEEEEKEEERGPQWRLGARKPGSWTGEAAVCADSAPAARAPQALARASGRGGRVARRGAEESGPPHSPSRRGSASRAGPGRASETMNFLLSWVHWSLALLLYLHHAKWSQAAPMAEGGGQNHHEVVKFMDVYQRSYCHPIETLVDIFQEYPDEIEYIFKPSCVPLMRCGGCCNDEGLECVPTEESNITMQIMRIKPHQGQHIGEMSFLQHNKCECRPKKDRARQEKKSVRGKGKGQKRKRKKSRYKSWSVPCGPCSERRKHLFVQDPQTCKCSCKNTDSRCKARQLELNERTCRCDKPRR
METHOD: cell-based or functional assay
The binders listed here are annotated with their HUVEC Erk phosphorylation, IC50.
Return type: number; implicit unit pM.

In the examples that follow, each entry is paired with its recorded HUVEC Erk phosphorylation, IC50.
BINDER: VEGFBII022 (VHH, not shown: small tags and cut ends) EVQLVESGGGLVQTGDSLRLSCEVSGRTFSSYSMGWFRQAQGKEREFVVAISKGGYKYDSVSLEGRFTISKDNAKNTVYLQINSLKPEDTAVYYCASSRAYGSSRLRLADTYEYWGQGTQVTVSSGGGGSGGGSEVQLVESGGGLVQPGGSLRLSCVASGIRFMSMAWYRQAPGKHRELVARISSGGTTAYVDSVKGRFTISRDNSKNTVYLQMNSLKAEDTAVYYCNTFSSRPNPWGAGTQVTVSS
QUANTITY_MEASURED: HUVEC Erk phosphorylation, IC50
OBSERVED_VALUE: 180

BINDER: VEGFBII023 (VHH, not shown: small tags and cut ends) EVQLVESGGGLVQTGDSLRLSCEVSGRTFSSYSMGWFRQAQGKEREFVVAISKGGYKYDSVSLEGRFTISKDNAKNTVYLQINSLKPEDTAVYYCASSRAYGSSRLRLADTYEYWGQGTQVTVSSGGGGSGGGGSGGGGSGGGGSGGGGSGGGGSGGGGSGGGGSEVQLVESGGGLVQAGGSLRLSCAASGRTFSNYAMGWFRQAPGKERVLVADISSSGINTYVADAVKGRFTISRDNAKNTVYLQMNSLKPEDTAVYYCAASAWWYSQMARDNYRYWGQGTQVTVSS
QUANTITY_MEASURED: HUVEC Erk phosphorylation, IC50
OBSERVED_VALUE: 250

BINDER: VEGFBII010 (VHH, not shown: small tags and cut ends) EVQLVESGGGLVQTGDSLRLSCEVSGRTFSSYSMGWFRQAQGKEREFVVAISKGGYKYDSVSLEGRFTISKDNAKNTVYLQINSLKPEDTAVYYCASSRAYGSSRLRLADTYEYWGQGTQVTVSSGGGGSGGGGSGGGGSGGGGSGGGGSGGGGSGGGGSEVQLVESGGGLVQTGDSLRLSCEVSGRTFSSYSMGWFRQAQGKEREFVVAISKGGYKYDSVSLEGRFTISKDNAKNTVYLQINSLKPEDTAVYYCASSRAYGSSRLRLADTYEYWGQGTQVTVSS
QUANTITY_MEASURED: HUVEC Erk phosphorylation, IC50
OBSERVED_VALUE: 190

BINDER: VEGFBII024 (VHH, not shown: small tags and cut ends) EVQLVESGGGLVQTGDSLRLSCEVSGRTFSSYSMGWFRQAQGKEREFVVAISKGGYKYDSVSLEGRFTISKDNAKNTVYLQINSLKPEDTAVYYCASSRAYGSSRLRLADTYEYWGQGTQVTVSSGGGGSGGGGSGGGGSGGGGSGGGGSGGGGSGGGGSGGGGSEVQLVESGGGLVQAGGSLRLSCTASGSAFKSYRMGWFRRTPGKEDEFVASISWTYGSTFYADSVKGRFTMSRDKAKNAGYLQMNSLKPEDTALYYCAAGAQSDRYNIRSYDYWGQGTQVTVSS
QUANTITY_MEASURED: HUVEC Erk phosphorylation, IC50
OBSERVED_VALUE: 230

BINDER: VEGFBII025 (VHH, not shown: small tags and cut ends) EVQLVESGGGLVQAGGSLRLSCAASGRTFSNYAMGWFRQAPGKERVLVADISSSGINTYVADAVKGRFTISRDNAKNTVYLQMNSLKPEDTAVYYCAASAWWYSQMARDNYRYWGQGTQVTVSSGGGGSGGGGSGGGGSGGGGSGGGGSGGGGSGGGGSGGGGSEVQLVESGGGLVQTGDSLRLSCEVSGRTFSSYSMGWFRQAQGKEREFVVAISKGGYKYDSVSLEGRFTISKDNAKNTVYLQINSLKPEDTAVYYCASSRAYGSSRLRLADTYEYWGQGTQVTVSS
QUANTITY_MEASURED: HUVEC Erk phosphorylation, IC50
OBSERVED_VALUE: 230

# ---- query binder ----
IN: Consider the binder shown here: VEGFBII021 (VHH, not shown: small tags and cut ends) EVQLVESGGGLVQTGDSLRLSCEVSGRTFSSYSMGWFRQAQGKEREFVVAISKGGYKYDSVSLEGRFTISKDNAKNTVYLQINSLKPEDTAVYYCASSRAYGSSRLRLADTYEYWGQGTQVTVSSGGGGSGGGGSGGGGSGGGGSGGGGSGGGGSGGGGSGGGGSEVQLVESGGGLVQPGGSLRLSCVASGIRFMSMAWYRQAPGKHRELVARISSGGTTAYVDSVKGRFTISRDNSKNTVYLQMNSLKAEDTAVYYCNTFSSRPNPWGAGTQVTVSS What is its recorded HUVEC Erk phosphorylation, IC50?
OUT: 210
